Target: T1, human monocarboxylate transporter 1 (MCT1) (human, UniProt P53985 1-500)
T1 sequence: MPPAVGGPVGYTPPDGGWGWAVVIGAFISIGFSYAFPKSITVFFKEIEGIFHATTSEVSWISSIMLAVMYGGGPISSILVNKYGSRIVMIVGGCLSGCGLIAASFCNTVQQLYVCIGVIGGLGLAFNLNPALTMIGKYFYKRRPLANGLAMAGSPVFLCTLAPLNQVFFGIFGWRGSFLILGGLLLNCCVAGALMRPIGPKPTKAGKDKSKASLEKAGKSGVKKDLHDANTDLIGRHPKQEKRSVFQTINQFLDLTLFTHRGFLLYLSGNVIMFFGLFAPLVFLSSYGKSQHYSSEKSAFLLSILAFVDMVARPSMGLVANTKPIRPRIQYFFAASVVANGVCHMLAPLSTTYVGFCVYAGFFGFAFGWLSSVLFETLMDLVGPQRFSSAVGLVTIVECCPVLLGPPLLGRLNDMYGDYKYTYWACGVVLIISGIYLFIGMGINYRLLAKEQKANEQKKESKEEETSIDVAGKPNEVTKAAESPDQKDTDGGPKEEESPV
Assay: cell-based or functional assay
Measured Property: IC50 of inhibition of CD4 T cell proliferation (nM)
Entry rule: numbers only, all in nM.

Use the examples below as a reference point.
Binder: anti-human MCT1 antibody Ab15 (antibody, human IgG1, kappa, V domains shown, IgG1EN backbone) VH: QVQLVQSGAEVKKPGASVKVSCTVSGRSLTNYHLQWVRQAPGQGLEWMGFIRSSGNTEYNSEFKSRVTMTRDTSTSTVYMELSSLRSEDTAVYYCARNLWYHGTYYSPGYYVMDAWGQGTLVTVSS VL: EIVLTQSPGTLSLSPGERATLSCKGSQNIENYLAWYQQKPGQAPRLLIYNRHNLQTGIPDRFSGSGSGTDFTLTISRLEPEDFAVYYCYQYSDGYTFGGGTKVEIKR
Recorded Value: 5
//
Binder: anti-human MCT1 antibody Ab19 (antibody, human IgG1, kappa, V domains shown, IgG1EN backbone) VH: QVQLVQSGAEVKKPGASVKVSCTVSGRSLTNYHLQWVRQAPGQGLEWMGFIRRSGNTEYNSEFKSRVTMTRDTSTSTVYMELSSLRSEDTAVYYCARNRWYHGTYYSPGYYVMDAWGQGTLVTVSS VL: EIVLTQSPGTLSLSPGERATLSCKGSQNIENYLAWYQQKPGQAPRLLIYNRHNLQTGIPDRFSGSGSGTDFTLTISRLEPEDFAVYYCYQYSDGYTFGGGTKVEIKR
Recorded Value: 5

Turning now to a further binder:
Entry anti-human MCT1 antibody Ab10 (antibody, human IgG1, kappa, V domains shown, IgG1EN backbone) VH: QVQLVQSGAEVKKPGASVKVSCTVSGRSLTGYHLQWVRQAPGQGLEWMGFIRSSGNTEYNSEFKSRVTMTRDTSTSTVYMELSSLRSEDTAVYYCARNRWYHGTYYSPGYYVMDAWGQGTLVTVSS VL: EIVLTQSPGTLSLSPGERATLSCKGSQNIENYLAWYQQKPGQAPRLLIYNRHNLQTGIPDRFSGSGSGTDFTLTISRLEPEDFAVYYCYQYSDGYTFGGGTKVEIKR has what IC50 of inhibition of CD4 T cell proliferation? 3

Attribution: patent US20230111363A1
